Consider the following molecules and their measured TI readings.
tested on: ICR mice; assay: Righting reflex experiment on mice with prodrugs; assay type: in vivo; conditions: therapeutic index, LD50/ED50, mice, prodrugs
Counter-ions that a name gives are not always drawn.
// return a plain number; no unit text

- molecule: "CC[C@H](C)c1cccc([C@H](C)C2CC2)c1OCOP(=O)([O-])[O-].[Na+].[Na+]"
  TI: 3.8
- molecule: "CC(C)c1cccc([C@H](C)C2CC2)c1OCOC(=O)[C@@H](N)Cc1ccccc1 [Compound 62, trifluoroacetate]"
  TI: 5.9
- molecule: "CC[C@@H](C)c1cccc([C@H](C)C2CC2)c1OCOP(=O)([O-])[O-].[Na+].[Na+]"
  TI: 4.0
- molecule: "CC(C)c1cccc([C@@H](C)C2CC2)c1OCOP(=O)([O-])[O-].[Na+].[Na+]"
  TI: 4.5
- molecule: "C[C@@H](c1cccc([C@H](C)C2CC2)c1OCOP(=O)(O)O)C1CC1 [Compound 75, phosphate]"
  TI: 3.6

Could you share which TI value was measured for CC(C)c1cccc([C@H](C)C2CC2)c1OCOP(=O)(OCOC(=O)C(C)(C)C)OCOC(=O)C(C)(C)C ?
5.1

Also check CC(=O)Oc1ccccc1C(=O)OCOc1c(C(C)C)cccc1[C@H](C)C1CC1
3.1

Also check CC(C)c1cccc([C@H](C)C2CCC2)c1OCOP(=O)([O-])[O-].[Na+].[Na+]
4.0

Also check CC(C)c1cccc([C@H](C)C2CC2)c1OCOC(=O)[C@H](Cc1ccccc1)NC(=O)OC(C)(C)C
14.4

Also check CC(C)c1cccc([C@H](C)C2CC2)c1OCOP(=O)([O-])[O-].[Na+].[Na+]
4.2

Also check CC(C)c1cccc(C(C)C)c1O [Propofol, reference compound]
2.7

----------
assay: Righting reflex experiment on mice with prodrugs; type: in vivo; details: both sexes, ICR, mouse, in vivo; mice, intravenous injection, prodrugs in physiological saline
Structures can show the parent of a compound that is named as a salt.
Consider the following molecules and their measured LD50 readings.
Provide the measurement as a number trailed by its unit.

- molecule: "CC(C)c1cccc([C@H](C)C2CC2)c1OCOC(=O)c1cccnc1"
  LD50: "80 mg/kg"
- molecule: "CC(C)c1cccc([C@H](C)C2CC2)c1OCOC(=O)[C@@H](N)Cc1ccccc1 [Compound 62, trifluoroacetate]"
  LD50: "45.6 mg/kg"
- molecule: "C[C@H](c1cccc([C@@H](C)C2CC2)c1OCOP(=O)(O)O)C1CC1 [Compound 77, phosphate]"
  LD50: "274 mg/kg"
- molecule: "CC(C)c1cccc([C@H](C)C2CC2)c1OP(=O)(O)O"
  LD50: "225 mg/kg"
- molecule: "CC(C)c1cccc([C@H](C)C2CC2)c1OCOC(=O)[C@H](Cc1ccccc1)NC(=O)OC(C)(C)C"
  LD50: "87.4 mg/kg"

Could you share which LD50 value was measured for CC(=O)Oc1ccccc1C(=O)OCOc1c(C(C)C)cccc1[C@H](C)C1CC1 ?
80 mg/kg

Also check CC(C)c1cccc([C@H](C)C2CC2)c1OCOC(=O)C(NC(=O)OC(C)(C)C)C(C)C (stereo in doubt)
120 mg/kg

Also check C[C@@H](c1cccc([C@H](C)C2CC2)c1OCOP(=O)(O)O)C1CC1 [Compound 75, phosphate]
42.4 mg/kg

Cited source: patent US9517988B2
